- system_under_test: T1, human GFRα3 expressed with a C-terminal myc-myc-hexahistidine tag (human, UniProt O60609 32-374, biotinylated (sites not given) in ELISA format 2 and in the Octet cross-competition; not in SPR)
- T1 construct: also called hGFRα3-mmh; hGFRα3-mmH
- test_description: Octet cross-competition; biotin-hGFRα3-mmH pre-saturated with first antibody H4H2342P
measurement_label: binding response of second antibody (nm)
Answer with a number only, understood to be in nm.

In the examples that follow, each entry is paired with its recorded binding response of second antibody (nm).
// binding response of second antibody (nm) lookup, binder = H4H2291S (antibody, human IgG4, V domains shown, human IgG4 Fc (H4H)) VH: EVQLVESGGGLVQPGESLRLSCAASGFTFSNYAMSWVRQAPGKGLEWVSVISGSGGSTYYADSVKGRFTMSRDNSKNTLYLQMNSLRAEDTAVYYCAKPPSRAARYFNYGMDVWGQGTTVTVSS VL: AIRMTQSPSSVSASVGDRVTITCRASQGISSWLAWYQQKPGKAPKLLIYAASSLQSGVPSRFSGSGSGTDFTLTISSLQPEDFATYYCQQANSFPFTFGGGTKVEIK , result: 0.45

// binding response of second antibody (nm) lookup, binder = H4H2350P (antibody, human IgG4, V domains shown, human IgG4 Fc (H4H)) VH: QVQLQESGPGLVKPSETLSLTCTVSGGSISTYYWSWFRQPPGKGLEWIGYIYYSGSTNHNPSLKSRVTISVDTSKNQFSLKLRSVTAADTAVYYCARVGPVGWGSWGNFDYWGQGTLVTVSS VL: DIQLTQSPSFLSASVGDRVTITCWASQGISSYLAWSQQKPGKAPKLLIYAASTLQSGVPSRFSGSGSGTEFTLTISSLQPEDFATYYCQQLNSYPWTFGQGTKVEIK , result: 1.46

API: the following record is the query input.
// binding response of second antibody (nm) lookup, binder = H4H2295S (antibody, human IgG4, V domains shown, human IgG4 Fc (H4H)) VH: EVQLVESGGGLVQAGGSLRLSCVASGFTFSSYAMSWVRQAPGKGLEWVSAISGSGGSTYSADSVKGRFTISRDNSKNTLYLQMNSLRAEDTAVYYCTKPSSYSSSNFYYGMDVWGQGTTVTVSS VL: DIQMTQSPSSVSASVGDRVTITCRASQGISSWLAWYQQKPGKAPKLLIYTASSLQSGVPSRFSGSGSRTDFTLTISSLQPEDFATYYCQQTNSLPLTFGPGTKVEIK , result: 0.31

Recorded values, source patent US20140056903A1.
